The origin of these recorded values is paper PMC9482650.

biological target: GRIP2_7, Q9C0E4; experiment: holdup assay; parameters: key: below the threshold = too weak to quantify, mostly under pKd 3.1 to 4; conditions: plain residues with an end cap or a label only (N-terminal biotin on a linker: ttds)
Sequence (Q9C0E4 934-1023): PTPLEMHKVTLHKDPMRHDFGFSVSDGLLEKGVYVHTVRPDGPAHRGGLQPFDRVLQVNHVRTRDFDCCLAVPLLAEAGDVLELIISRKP

# BINDER, pKd
records = [
    ("RPLPRKVSQL [DOCK4, Q8N1I0]", "below the threshold"),
    ("QRQARSETLV [HPV59-E6, Q81964]", "below the threshold"),
    ("KKYVDAETSL [SLC4A7, Q9Y6M7]", "below the threshold"),
    ("DKDPHSETAL [TMIGD1, Q6UXZ0]", "below the threshold"),
]
